Source listed as patent US20170165337A1.

Target: T1, HLA-A*02:01 (human)
T1 construct: MHC class I monomer of the UV-ligand exchange assay; also called peptide-receptive MHC molecules; MHC class I
Test: UV peptide-exchange ELISA
Examples of binders with documented peptide exchange yield follow.

# annotated cases, reported peptide exchange yield shown
1. GLQSGVDIGV	50 to 75%
2. FLDMTNWNL	≥ 75%
3. ALSEKLARL	50 to 75%

INPUT: Which peptide exchange yield value is on record for ALWELSLKI ?
OUTPUT: 50 to 75%

INPUT: Name the reported peptide exchange yield value associated with the binder LLPEGGITAI
OUTPUT: 50 to 75%

INPUT: Quick one: peptide exchange yield of SLFDSAYGA ?
OUTPUT: 50 to 75%

INPUT: Could you share which peptide exchange yield value was measured for QVMEKLAAV ?
OUTPUT: 50 to 75%

INPUT: Requested field: peptide exchange yield. Item: QLLPVSNVVSV
OUTPUT: 50 to 75%

INPUT: Consider the binder shown here: FLLEDLSQKL What is its recorded peptide exchange yield?
OUTPUT: 50 to 75%

INPUT: # lookup: peptide exchange yield of FLVETGFLHV
OUTPUT: ≥ 75%

INPUT: Any idea what its peptide exchange yield is? The binder is SLADDSVLERL
OUTPUT: 50 to 75%

INPUT: Please give the measured peptide exchange yield for this binder: SLIRILQTI
OUTPUT: 50 to 75%

INPUT: Query: peptide exchange yield; subject: SLYDVSRMYV
OUTPUT: ≥ 75%

INPUT: I'd like to know its peptide exchange yield. The binder in question is YLLDQSFVM
OUTPUT: ≥ 75%

INPUT: Dear colleague, I am looking for the recorded peptide exchange yield of the following binder: YMIGSEVGNYL
OUTPUT: ≥ 75%

INPUT: What measured peptide exchange yield goes with GLLESGRHYL ?
OUTPUT: 50 to 75%

INPUT: Entry under review: SMDDGMINV . Reported peptide exchange yield?
OUTPUT: 50 to 75%
